- ASSAY COMMENT: Quantitative High-Throughput drug screen in 47 multiple myeloma cell lines against the NCATS MIPE library collection: OPM2_DSMZ cell viability assay (AID 1919872); note: nearly all actives have a fitted effect of over 30% in size
- EXPERIMENTAL CONTEXT: OPM2 myeloma viability, CellTiter-Glo ATP luminescence, 48 h; series mostly up to 45.8 µM
Inconclusive results are not listed. Calls of active or inactive are those of the source. Calls come from the whole dose curve; as a rule, active = well fitted cell-killing curve with a large enough effect; inconclusive = small, poorly fitted or top-dose-only effect, or effect the other way; inactive = no such curve, though single readings can be large or run the other way.
Select the matching outcome among active, inactive

Record excerpt, results attached:
| COMPOUND | ANSWER LABEL |
| --- | --- |
| Cn1cc(C[C@@H](N)C(=O)O)c2ccccc21 | inactive |
| O=C(O)CCCCC(CCSCc1ccccc1)SCc1ccccc1 (centres undefined) | inactive |
| C=C[C@@H]1CN2CCC1C[C@H]2[C@H](O)c1ccnc2ccc(OC)cc12 (some centres undefined) | inactive |

Hi team, can someone confirm the assay call for Cc1cnc(Nc2ccc(CN3CCOCC3)cc2)nc1Nc1cccc(S(=O)(=O)NC(C)(C)C)c1 ?
active

Hi team, can someone confirm the assay call for CCN(C(=O)c1c(O)c2c(Cl)cccc2n(C)c1=O)c1ccccc1 ?
inactive

Hi team, can someone confirm the assay call for CS[C@H]1SC[C@@H]2C(=O)N(C)[C@H](C(C)C)C(=O)OC[C@H](NC(=O)c3cnc4ccccc4n3)C(=O)N[C@H](C)C(=O)N(C)[C@@H]1C(=O)N(C)[C@H](C(C)C)C(=O)OC[C@H](NC(=O)c1cnc3ccccc3n1)C(=O)N[C@H](C)C(=O)N2C ?
active

Hi team, can someone confirm the assay call for O=C(NNC(=O)c1ccc(CNS(=O)(=O)c2ccc(F)c(Cl)c2)cc1)c1ccccc1 ?
inactive

Hi team, can someone confirm the assay call for C[C@@H](Oc1ccc2[nH]nc(C=Cc3cnn(CCO)c3)c2c1)c1c(Cl)cncc1Cl ?
active

Hi team, can someone confirm the assay call for C=C(C)[C@@H]1CC[C@]2(C)CC[C@]3(C)[C@H](CC[C@@H]4[C@@]5(C)CC[C@H](O)C(C)(C)[C@H]5CC[C@]43C)[C@@H]12 ?
inactive

Hi team, can someone confirm the assay call for CCOC(=O)N1CCN([N+]([O-])=NOc2ccc([N+](=O)[O-])cc2C#N)CC1 ?
active

Hi team, can someone confirm the assay call for CCc1ccc(C(=O)Nc2cc(CN3CCN(C)CC3)cc(C(F)(F)F)c2)cc1C#Cc1cnc2ccnn2c1 ?
active

Hi team, can someone confirm the assay call for C[C@H](NCc1ccc(OCc2cccc(F)c2)cc1)C(N)=O ?
active

Hi team, can someone confirm the assay call for COc1cc(O)c2c(c1)C1OC1C[C@H](O)[C@H](O)C(=O)C=CC[C@H](C)OC2=O (some centres undefined) ?
active

Hi team, can someone confirm the assay call for CCN(CC)Cc1ccc2cc(COC(=O)Nc3ccc(C(=O)NO)cc3)ccc2c1 ?
active

Hi team, can someone confirm the assay call for Cc1noc(-c2ccc(CSCCC(=O)O)cc2)c1NC(=O)OC(C)c1ccccc1Cl (centres undefined) ?
inactive

Hi team, can someone confirm the assay call for CC[C@]12C=CCN3CC[C@@]4(c5cc([C@@]6(C(=O)OC)C[C@H]7C[C@@H](C(C)(F)F)CN(Cc8c6[nH]c6ccccc86)C7)c(OC)cc5N(C)[C@H]4[C@@](O)(C(=O)OC)[C@H]1OC(C)=O)[C@@H]32 ?
active

Hi team, can someone confirm the assay call for CCOC(=O)[C@@H](N)Cc1ccc(-c2cc(O[C@H](c3ccc(Cl)cc3-n3ccc(C)n3)C(F)(F)F)nc(N)n2)cc1 ?
active

Hi team, can someone confirm the assay call for COc1cccc2c1C(=O)c1c(O)c3c(c(O)c1C2=O)C[C@@](O)(C(=O)CO)C[C@@H]3O[C@H]1C[C@H](N)[C@H](OC2CCCCO2)[C@H](C)O1 (some centres undefined) ?
active

Hi team, can someone confirm the assay call for O=C1c2cccc(O)c2C(=O)c2c(O)cc(CO)cc21 ?
inactive

Hi team, can someone confirm the assay call for CNC(=O)c1ccc(Nc2cc(Nc3ccccc3S(=O)(=O)C(C)C)c3cc[nH]c3n2)nc1 ?
active

Hi team, can someone confirm the assay call for CCc1nc(-c2cccc(C)c2)c(-c2ccnc(NC(=O)c3ccccc3)c2)s1 ?
active

Hi team, can someone confirm the assay call for CC1(C)O[C@@H]2C[C@H]3[C@@H]4CCC5=CC(=O)C=C[C@]5(C)[C@@H]4[C@@H](O)C[C@]3(C)[C@]2(C(=O)CO)O1 ?
inactive
